target: T1, cynomolgus monkey E-selectin extracellular domain with 10 His purification tail (cynomolgus monkey, UniProt P16581 22-554 (human entry))
T1 construct: also called cynomolgus E-selectin; truncated cynomolgus monkey E-selectin
T1 chain: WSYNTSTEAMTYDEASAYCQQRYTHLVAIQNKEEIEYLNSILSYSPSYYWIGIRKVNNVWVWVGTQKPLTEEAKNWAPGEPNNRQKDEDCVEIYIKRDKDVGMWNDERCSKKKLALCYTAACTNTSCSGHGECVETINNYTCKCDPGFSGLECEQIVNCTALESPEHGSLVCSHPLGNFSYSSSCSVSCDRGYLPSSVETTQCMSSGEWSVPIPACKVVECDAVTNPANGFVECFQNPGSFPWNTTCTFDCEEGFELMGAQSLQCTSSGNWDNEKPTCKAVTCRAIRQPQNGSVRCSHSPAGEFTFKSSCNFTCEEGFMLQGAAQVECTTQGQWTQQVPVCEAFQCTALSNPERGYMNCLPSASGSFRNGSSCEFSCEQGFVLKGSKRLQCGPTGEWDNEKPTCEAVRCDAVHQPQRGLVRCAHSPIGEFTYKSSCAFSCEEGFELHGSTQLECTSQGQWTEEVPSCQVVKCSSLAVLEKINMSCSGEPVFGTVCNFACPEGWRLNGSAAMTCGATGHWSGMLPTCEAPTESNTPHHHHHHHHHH
measurementNotes: SPR, antibody captured, E-selectin analyte
So I've got a bunch of binders here, and I need their t½ values.
Give bare numbers, in s.

[[record]]
binder = "anti-E-selectin antibody 0164 chimera (antibody, human IgG1, kappa, V domains shown, rat VH/VL on effector-null human IgG1 and human kappa) VH: EVQLQQSGAEFGKPGTSVKLSCKVSGYNIRSSYMHWVNQRPGKGLEWIGRIDPANGNTIYAEKFKIKAILTADSSSNTAYMQLSQLKSDDTAIYFCAMDLYSTSEYWGQGVMVTVSS VL: DIQMTQSPSFLSASVGDRVTINCKTSQNINRYLNWYQQKLGEAPKLLIYNANSLQTGIPSRFSASGSGTDFTLTINSLQPEDVATYFCLQDNSWPLTFGSGTKLEIKR"
resultvalue = 57.8


// moving on: another record for t½
Which t½ is reported for this binder? anti-E-selectin antibody 0159 chimera (antibody, human IgG1, kappa, V domains shown, rat VH/VL on effector-null human IgG1 and human kappa) VH: EVQLQQSGAELGKPGTSVKLSCKVSGYNIRSTYMHWVSQRPGKGLEWIGRIDPANGNTIYAEKFKRKATLTADTSSNTAYMQLSQLKSDDRAIYFCAMEVRVSFEYWGQGVMVTVSS VL: DIQMTQSPSFLSASVGDRVTINCKASQNINKYLDWYQQKLGEGPKLLIYYTNNLHTGIPSRFSGSGSGTDFTLTISSLQPEDVATYFCLQHDSGYTFGAGTKLELKR
18.5

Data origin, for the record: patent US20240076386A1
